System: Thoracic aorta
Assay: Vasodilation activity in C57Bl6 mouse thoracic aorta assessed as inhibition of phenylephrine-induced contractions
Format: functional, tissue-based
Details: read-out: MEC
measurement_type: minimal effective concentration (µM)
Dear colleague, please return just the value in µM, with no unit written.

// below: answered compounds
{"compound": "Cc1ccc(C)c(OCCCC(C)(C)C(=O)O)c1", "experimental_target": "Thoracic aorta", "minimal effective concentration [µM]": 30}
{"compound": "CCCCCCC(CCCOc1cc(C)ccc1C)C(=O)O (configuration not stated)", "experimental_target": "Thoracic aorta", "minimal effective concentration [µM]": 10}
{"compound": "Cc1ccc(C(C)C)c(OCCCC(C)(C)C(=O)O)c1", "experimental_target": "Thoracic aorta", "minimal effective concentration [µM]": 10}
{"compound": "Cc1ccc(C)c(NCCCC(C)(C)C(=O)O)c1", "experimental_target": "Thoracic aorta", "minimal effective concentration [µM]": 100}

Task: Given the entry Cc1ccc(C)c(OCCCCCC(=O)O)c1 , report its measured minimal effective concentration.
Output: 300

Task: Then what about the compound Cc1ccc(C)c(OCCCCC(=O)O)c1 ?
Output: 100

Task: Then what about the compound Cc1ccc(C)c(N(CCCC(C)(C)C(=O)O)C(=O)CCCCC(=O)N(CCCC(C)(C)C(=O)O)c2cc(C)ccc2C)c1 ?
Output: 10

---

Recorded pIC50 values for a group of molecules are listed next.
Test system: Thoracic aorta
Assay: Vasodilation activity in C57Bl6 mouse thoracic aorta assessed as inhibition of phenylephrine-induced contractions
Assay type: functional, tissue-based
Note: pIC50 values are expressed as the negative base-10 logarithm of concentration in M.

// below: answered molecules
{"molecule": "CCCCCCC(CCCOc1cc(C)ccc1C)C(=O)O (configuration not stated)", "pIC50": 4.35}
{"molecule": "Cc1ccc(C)c(OCCCC(C)(C)C(=O)O)c1", "pIC50": 3.51}
{"molecule": "Cc1ccc(C)c(N(CCCC(C)(C)C(=O)O)C(=O)CCCCC(=O)N(CCCC(C)(C)C(=O)O)c2cc(C)ccc2C)c1", "pIC50": 3.58}
{"molecule": "Cc1ccc(C)c(OCCCCC(=O)O)c1", "pIC50": 3.09}
{"molecule": "Cc1ccc(C)c(NCCCC(C)(C)C(=O)O)c1", "pIC50": 3.14}

// next entry
Task: Give the reported pIC50 for Cc1ccc(C(C)C)c(OCCCC(C)(C)C(=O)O)c1 (system: Thoracic aorta).
Output: 4.15

---

Target: Soluble guanylate cyclase alpha1/beta1 complex (Homo sapiens, UniProt Q02108+Q02153)
Sequence (Q02153 whole entry): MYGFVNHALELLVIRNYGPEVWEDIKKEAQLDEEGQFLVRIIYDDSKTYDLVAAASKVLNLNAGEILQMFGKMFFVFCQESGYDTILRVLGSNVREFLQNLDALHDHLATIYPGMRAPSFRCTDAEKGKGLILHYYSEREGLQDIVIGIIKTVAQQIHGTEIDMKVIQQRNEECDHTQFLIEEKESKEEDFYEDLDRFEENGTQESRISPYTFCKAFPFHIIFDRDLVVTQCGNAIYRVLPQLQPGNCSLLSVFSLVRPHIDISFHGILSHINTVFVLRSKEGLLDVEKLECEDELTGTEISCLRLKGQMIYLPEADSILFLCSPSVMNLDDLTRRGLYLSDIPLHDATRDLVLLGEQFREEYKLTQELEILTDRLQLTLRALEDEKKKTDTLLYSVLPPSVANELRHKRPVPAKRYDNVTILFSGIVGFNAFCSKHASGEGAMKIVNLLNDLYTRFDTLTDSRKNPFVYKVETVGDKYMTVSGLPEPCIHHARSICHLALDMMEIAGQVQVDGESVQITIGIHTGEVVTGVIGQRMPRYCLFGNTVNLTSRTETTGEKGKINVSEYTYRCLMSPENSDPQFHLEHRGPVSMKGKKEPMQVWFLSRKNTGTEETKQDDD
Sequence (Q02108 whole entry): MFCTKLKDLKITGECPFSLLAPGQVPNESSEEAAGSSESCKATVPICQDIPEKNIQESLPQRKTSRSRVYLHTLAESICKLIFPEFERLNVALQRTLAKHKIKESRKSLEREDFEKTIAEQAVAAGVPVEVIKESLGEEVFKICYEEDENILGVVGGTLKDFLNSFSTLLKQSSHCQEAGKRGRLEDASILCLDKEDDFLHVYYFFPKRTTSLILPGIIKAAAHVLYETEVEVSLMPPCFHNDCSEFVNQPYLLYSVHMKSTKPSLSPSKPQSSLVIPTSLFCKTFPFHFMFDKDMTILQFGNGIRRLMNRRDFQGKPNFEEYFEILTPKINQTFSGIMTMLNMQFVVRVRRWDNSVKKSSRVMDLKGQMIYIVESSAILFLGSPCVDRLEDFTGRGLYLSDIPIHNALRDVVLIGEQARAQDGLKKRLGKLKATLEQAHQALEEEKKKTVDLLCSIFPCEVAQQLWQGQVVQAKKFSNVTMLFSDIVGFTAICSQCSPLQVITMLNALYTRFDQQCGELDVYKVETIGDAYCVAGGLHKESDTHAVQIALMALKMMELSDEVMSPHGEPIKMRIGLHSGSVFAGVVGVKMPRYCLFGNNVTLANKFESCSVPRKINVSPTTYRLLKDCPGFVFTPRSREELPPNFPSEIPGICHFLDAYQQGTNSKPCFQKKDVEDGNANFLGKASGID
Experiment: Activation of full length human sGC alpha1/beta1 subunit containing heme in ferric state expressed in Sf9 insect cells using […] incubated for 15 mins by [32P]GTP assay
pEC50: −log10 of the molar value.
Tag: Condition met if measured pEC50 is not below 4, Condition not met if it is.

These recorded examples may help you get a feel for the data.
{"smiles_code": "Cc1ccc(C(C)C)c(OCCCC(C)(C)C(=O)O)c1", "class_name": "Condition not met"}
{"smiles_code": "Cc1ccc(C)c(NCCCC(C)(C)C(=O)O)c1", "class_name": "Condition met"}
{"smiles_code": "Cc1ccc(C)c(OCCCCC(=O)O)c1", "class_name": "Condition not met"}
{"smiles_code": "Cc1ccc(C)c(OCCCCCC(=O)O)c1", "class_name": "Condition not met"}

Task: I'd appreciate it if you could say whether Cc1ccc(C)c(OCCCC(C)(C)C(=O)O)c1 has pEC50 at least equal to 4.
Output: Condition not met

The measurements presented in this section are drawn from ChEMBL document CHEMBL4828730.
